# test.target: UniProt:P30542
# Sequence (P30542 whole entry): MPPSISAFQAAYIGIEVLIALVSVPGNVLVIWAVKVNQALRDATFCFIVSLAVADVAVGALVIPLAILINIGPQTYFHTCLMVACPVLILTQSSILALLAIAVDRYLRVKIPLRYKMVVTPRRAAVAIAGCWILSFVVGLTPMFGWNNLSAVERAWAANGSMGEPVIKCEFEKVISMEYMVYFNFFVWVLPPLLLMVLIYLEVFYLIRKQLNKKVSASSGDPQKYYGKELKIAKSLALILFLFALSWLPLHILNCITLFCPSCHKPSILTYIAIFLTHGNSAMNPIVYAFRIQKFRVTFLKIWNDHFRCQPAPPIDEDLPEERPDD
# test: Allosteric enhancement of human adenosine A1 receptor expressed in CHO cells assessed as inhibition of forskolin-stimulated cAMP production at 100 nM preincubated for 10 mins followed by forskolin challenge measured after 5 mins by scintillation counting analysis in presence of CCPA relative to control
# Type: functional, cell-based
metric: inhibition (%)

[
  {
    "compound.string": "COc1ccc(-c2sc(N)c(C(=O)c3ccc(Cl)cc3)c2CC(C)(C)C)cc1",
    "measured.result": 43
  }
]

a. CC(C)(C)Cc1c(-c2ccccc2)sc(N)c1C(=O)c1cccc(C(F)(F)F)c1
b. CC(C)(C)Cc1c(-c2ccc(Cl)cc2)sc(N)c1C(=O)c1ccc(Cl)cc1
Qu. Select one: a or b . Criterion: greater recorded inhibition. Write down the label attached to your selection.
Ans. b
(b: 58%, a: 39%)
